# System: NDR1
# Construct: gene STK38
# CONDITION_DESCRIPTION: concentration: 1 μM,replicates: in singlicate; n = 1;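 further: KINOMEscan kinase panel screen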
Classification field: enter TRUE for %Inh values not below 10%, FALSE for values below it.

1) Cc1cc2cn[nH]c2cc1-c1cccc2c(N)c(C(N)=O)nnc12 :: TRUE
2) Cc1cc(C(=O)Nc2ccc(Oc3ccc4nc(NC(=O)C5CC5)cn4n3)cc2)nn1-c1ccccc1 :: FALSE
3) O=C(NCCCN1CCOC1=O)c1cnc(NCc2cc(Cl)ccc2Cl)nc1NC1CCCC1 :: TRUE
4) CN(C)CCOc1ccc(-c2cc(-c3c[nH]nc3-c3ccccn3)ccn2)cc1 :: TRUE
5) Cc1occc1-c1nc(N)c(OC[C@@H](N)Cc2c[nH]c3ccccc23)cc1-c1cc2c(C)n[nH]c2cn1 :: TRUE
6) C=CC(=O)Nc1cc2c(Nc3ccc(F)c(Cl)c3)ncnc2cc1OCCCN1CCOCC1 :: FALSE
7) Cc1ccc2c(-c3ccncc3)c(-c3ccc(F)cc3)nn2c1.Cl :: TRUE
8) Cc1n[nH]c2ccc(-c3cc(OC[C@@H](N)Cc4ccccc4)cnc3-c3ccoc3)cc12.O=C(O)C(F)(F)F.O=C(O)C(F)(F)F :: TRUE

---

Reported %Inh values for a set of compounds
# Tested on: PRKCH
# CONDITION_DESCRIPTION: concentration: 1 μM,replicates: in singlicate; n = 1
MEASUREMENT_LABEL: %Inh (%)

1. Cc1cc2cn[nH]c2cc1-c1cccc2c(N)c(C(N)=O)nnc12 :: 7
2. Cc1ccc2c(-c3ccncc3)c(-c3ccc(F)cc3)nn2c1.Cl :: 0
3. CC(C)Nc1cc(-c2ccc3c(N)n[nH]c3c2)nc(N)n1 :: 0
4. Cc1ccc(-n2nc(C(C)(C)C)cc2NC(=O)Nc2ccc(OCCN3CCOCC3)c3ccccc23)cc1 :: 0
5. Cc1occc1-c1nc(N)c(OC[C@@H](N)Cc2c[nH]c3ccccc23)cc1-c1cc2c(C)n[nH]c2cn1 :: 95.7
6. COc1ccc(C[C@@H](CN)NC(=O)c2cc(Br)c(-c3ccnc4[nH]ccc34)s2)cc1.Cl.Cl :: 99.4
7. O=C(NCCCN1CCOC1=O)c1cnc(NCc2cc(Cl)ccc2Cl)nc1NC1CCCC1 :: 8
8. CCn1c(-c2nonc2N)nc2c(C#CC(C)(C)O)nc(OCCN)cc21.Cl.Cl :: 96.5

---

Reported %Inh values for a set of compounds
# Test system: PRP4
# CONDITION_DESCRIPTION: concentration: 1 μM,replicates: in singlicate; n = 1
MEASUREMENT_LABEL: %Inh (%)

1) C=CC(=O)Nc1cc2c(Nc3ccc(F)c(Cl)c3)ncnc2cc1OCCCN1CCOCC1 :: 0
2) Cc1cc(C(=O)Nc2ccc(Oc3ccc4nc(NC(=O)C5CC5)cn4n3)cc2)nn1-c1ccccc1 :: 0
3) C[C@H]1Oc2cc(cnc2N)-c2c(nn(C)c2C#N)CN(C)C(=O)c2ccc(F)cc21 :: 0
4) Cl.Cl.NC[C@H](CC1CCCCC1)NC(=O)c1cc(Br)c(-c2ccnc3[nH]ccc23)s1 :: 78

---

# Test system: EPHA4
# CONDITION_DESCRIPTION: concentration: 1 μM,replicates: in singlicate; n = 1
Reported %Inh values for a set of compounds
MEASUREMENT_LABEL: %Inh (%)

1. Cc1n[nH]c2ccc(-c3cc(OC[C@@H](N)Cc4ccccc4)cnc3-c3ccoc3)cc12.O=C(O)C(F)(F)F.O=C(O)C(F)(F)F [GSK507358] :: 0
2. C=CC(=O)Nc1cc2c(Nc3ccc(F)c(Cl)c3)ncnc2cc1OCCCN1CCOCC1 [GW781483] :: 5
3. Cl.Cl.Nc1nc(-c2ccc3c(N)n[nH]c3c2)cc(N2CCCC(NC(=O)c3ccccc3)C2)n1 (stereo not drawn) [GSK2286775] :: 15
4. CC(C)Nc1cc(-c2ccc3c(N)n[nH]c3c2)nc(N)n1 [GSK2221681] :: 0
5. CCN(CC)CCOc1ccc(Nc2ncc3cc(-c4c(Cl)cccc4Cl)c(=O)n(C)c3n2)cc1 [SB-601273] :: 100
6. Cc1cc2cn[nH]c2cc1-c1cccc2c(N)c(C(N)=O)nnc12 :: 8
7. CC(C)N1C(=O)Cc2cc(Nc3ncc(C(F)(F)F)c(NCc4cccc(S(C)(=O)=O)c4)n3)ccc21 :: 1
8. C[C@@H]1CCN(C(=O)CC#N)C[C@@H]1N(C)c1ncnc2[nH]ccc12 :: 0
9. Cc1ccc(-n2nc(C(C)(C)C)cc2NC(=O)Nc2ccc(OCCN3CCOCC3)c3ccccc23)cc1 [GW839464] :: 6

---

# Test system: LOK
# Construct: gene STK10
# CONDITION_DESCRIPTION: concentration: 1 μM,replicates: in singlicate; n = 1
MEASUREMENT_LABEL: %Inh (%)

1) Cl.Cl.Nc1nc(-c2ccc3c(N)n[nH]c3c2)cc(N2CCCC(NC(=O)c3ccccc3)C2)n1 (stereo not shown) :: 0
2) CN(C)CC(O)COc1ccc(Nc2nccc(-c3cnn4nc(N5CCOCC5)ccc34)n2)cc1 (stereo not shown) :: 0
3) Cc1occc1-c1nc(N)c(OC[C@@H](N)Cc2c[nH]c3ccccc23)cc1-c1cc2c(C)n[nH]c2cn1 :: 56
4) Cl.Oc1cc(-c2nc(-c3ccccc3)[nH]c2-c2ccncc2)ccc1Cl :: 44
5) CCN(CC)CCOc1ccc(Nc2ncc3cc(-c4c(Cl)cccc4Cl)c(=O)n(C)c3n2)cc1 :: 99.3
6) COc1ccc(C[C@@H](CN)NC(=O)c2cc(Br)c(-c3ccnc4[nH]ccc34)s2)cc1.Cl.Cl :: 0
7) NC(=O)c1cc(-c2ccccc2)cc2c(C3CCNCC3)c[nH]c12 :: 0
8) CC(C)Nc1cc(-c2ccc3c(N)n[nH]c3c2)nc(N)n1 :: 0
9) CC(C)N1C(=O)Cc2cc(Nc3ncc(C(F)(F)F)c(NCc4cccc(S(C)(=O)=O)c4)n3)ccc21 :: 0
10) Cc1cc2cn[nH]c2cc1-c1cccc2c(N)c(C(N)=O)nnc12 :: 19
11) O=C(NCCNc1ccnc(NCc2ccc(F)cc2)n1)c1cc2ccccc2s1 :: 0
12) C[C@@H](Oc1cc(-c2cnn(C3CCNCC3)c2)cnc1N)c1c(Cl)ccc(F)c1Cl :: 99.5
13) Cl.Cl.NC[C@H](Cc1ccc(C(F)(F)F)cc1)NC(=O)c1cc(Br)c(-c2ccnc3[nH]ccc23)s1 :: 0
14) Nc1nc(Nc2ccccc2)cc(-c2ccc3c(N)n[nH]c3c2)n1 :: 13
15) CNC(=O)c1ccccc1Sc1ccc2c(/C=C/c3ccccn3)n[nH]c2c1 :: 66
16) C[C@H]1Oc2cc(cnc2N)-c2c(nn(C)c2C#N)CN(C)C(=O)c2ccc(F)cc21 :: 92.8
17) CCN(CC)CCCCNc1ncc2cc(-c3c(Cl)cccc3Cl)c(NC(=O)NC(C)(C)C)nc2n1 :: 80
18) Cc1cc(C(=O)Nc2ccc(Oc3ccc4nc(NC(=O)C5CC5)cn4n3)cc2)nn1-c1ccccc1 :: 91.7
19) CN(C)CCOc1ccc(-c2cc(-c3c[nH]nc3-c3ccccn3)ccn2)cc1 :: 21

---

# Tested on: SNRK
# CONDITION_DESCRIPTION: concentration: 1 μM,replicates: in singlicate; n = 1
MEASUREMENT_LABEL: %Inh (%)

1. CNC(=O)c1ccccc1Sc1ccc2c(/C=C/c3ccccn3)n[nH]c2c1 :: 9
2. CCn1c(-c2nonc2N)nc2c(C#CC(C)(C)O)nc(OCCN)cc21.Cl.Cl [GSK902056] :: 0
3. O=C(NCCNc1ccnc(NCc2ccc(F)cc2)n1)c1cc2ccccc2s1 [GSK1379944] :: 0
4. O=C(NCCCN1CCOC1=O)c1cnc(NCc2cc(Cl)ccc2Cl)nc1NC1CCCC1 :: 5
5. Cc1cc(C(=O)Nc2ccc(Oc3ccc4nc(NC(=O)C5CC5)cn4n3)cc2)nn1-c1ccccc1 :: 0
6. CC(C)Nc1cc(-c2ccc3c(N)n[nH]c3c2)nc(N)n1 [GSK2221681] :: 0
7. Cc1ccc2c(-c3ccncc3)c(-c3ccc(F)cc3)nn2c1.Cl [GW461484] :: 0
8. Cl.Cl.NC[C@H](CC1CCCCC1)NC(=O)c1cc(Br)c(-c2ccnc3[nH]ccc23)s1 [GSK1581427] :: 0
9. C=CC(=O)Nc1cc2c(Nc3ccc(F)c(Cl)c3)ncnc2cc1OCCCN1CCOCC1 [GW781483] :: 14

---

# System: IKK-alpha
# Construct: gene CHUK
# CONDITION_DESCRIPTION: concentration: 1 μM,replicates: in singlicate; n = 1
MEASUREMENT_LABEL: %Inh (%)

1. Cc1ccc2c(-c3ccncc3)c(-c3ccc(F)cc3)nn2c1.Cl [GW461484] :: 9
2. Cc1cc(C(=O)Nc2ccc(Oc3ccc4nc(NC(=O)C5CC5)cn4n3)cc2)nn1-c1ccccc1 :: 0
3. Cc1occc1-c1nc(N)c(OC[C@@H](N)Cc2c[nH]c3ccccc23)cc1-c1cc2c(C)n[nH]c2cn1 [GSK1660450] :: 0
4. Nc1nc(Nc2ccccc2)cc(-c2ccc3c(N)n[nH]c3c2)n1 [GSK2225749] :: 27
5. NC(=O)c1cc(-c2ccccc2)cc2c(C3CCNCC3)c[nH]c12 [GSK301362] :: 54

These entries and their values trace back to paper PMC5540273.
